// values below are reported GI50
System: DU-145
Assay: NCI tumour cell line growth inhibition, 48 h
The source made the active and inactive calls. Cut-off read from the data, not from the text of the source: active = GI50 up to about 1.1 µM and inactive = higher.
endpoint-name: GI50

{"compound": "CC(=O)OC12c3ccccc3C(c3ccccc31)C1C(=O)N(c3ccccc3O)C(=O)C12 (stereo not given)", "system-under-test": "DU-145", "measured-result": "> 100 µM (inactive)"}
{"compound": "Cc1cc2oc(=O)c(Cl)c(Cl)c2c(C)c1Cl", "system-under-test": "DU-145", "measured-result": "14.6 µM (inactive)"}
{"compound": "N#Cc1c(-c2ccccc2)c(C#N)c(=S)n(C2OCC(O)C(O)C2O)c1N (stereo not given)", "system-under-test": "DU-145", "measured-result": "> 100 µM (inactive)"}
{"compound": "COc1ccc(N2C(=O)/C(=C\\c3cccc(Oc4ccccc4)c3)SC2c2ccccc2)cc1 (stereo not given)", "system-under-test": "DU-145", "measured-result": "73.8 µM (inactive)"}
{"compound": "CCCCN(C(=O)c1ccccc1)C1CCC(=O)c2[nH]c3ccccc3c21 (stereo not given)", "system-under-test": "DU-145", "measured-result": "75 µM (inactive)"}

====

Test system: OVCAR-3
Experiment: NCI tumour cell line growth inhibition, 48 h
Activity calls are given as the source filed them. Rule as the data show it: active = GI50 up to about 1.1 µM and inactive = higher.
Property: GI50; scope: individual compounds

{"compound": "C[C@]12CCC(=O)C=C1CC[C@@H]1C2CC[C@]2(C)c3nn(-c4ccccc4)nc3CC12 (stereo not given in full)", "GI50": "> 100 µM (inactive)"}
{"compound": "N=C(N)c1ccc(/N=N\\c2c(O)ccc3cc4c(/N=N\\c5ccc(C(=N)N)cc5)c(O)ccc4cc23)cc1", "GI50": "> 100 µM (inactive)"}
{"compound": "CC1(C)Oc2ccc3c(=O)c4ccccc4oc3c2C1C(=O)O (stereo not given)", "GI50": "> 100 µM (inactive)"}
{"compound": "O=C(c1ccco1)N1CCN(C(=O)c2ccco2)C1=S", "GI50": "3.44 µM (inactive)"}
{"compound": "COC(=O)c1c2c(cc3c1CC1(Cc4cc5c(c(C(C)=O)c4C1)CCC5)C3)CCC2 (stereo not given)", "GI50": "> 100 µM (inactive)"}
{"compound": "O=C1c2ccccc2C(=O)N1CCN(CCN1C(=O)c2ccccc2C1=O)Cc1ccccc1", "GI50": "> 100 µM (inactive)"}
{"compound": "Cc1ccc(S(=O)(=O)n2c3c(c4ccccc42)CCN2C[C@H]([C@H](C)Br)CC[C@@H]32)cc1", "GI50": "> 100 µM (inactive)"}
{"compound": "CC(C)(C)c1cc(C(=O)C2Cc3ccccc3C(=O)O2)cc(C(C)(C)C)c1O (stereo not given)", "GI50": "12.2 µM (inactive)"}
{"compound": "O=S1(=O)CCCS(=O)(=O)C(c2ccccc2)=C1c1ccccc1", "GI50": "36.6 µM (inactive)"}
{"compound": "OC1CCCCCCCCCCC1SCCCCl (stereo not given)", "GI50": "> 100 µM (inactive)"}
{"compound": "Cc1c(C(=O)O)n(C)c(=O)n(C)c1=O", "GI50": "> 100 µM (inactive)"}
{"compound": "N[C@H](C(=O)O)[C@@H]1CC(Br)=NO1", "GI50": "16.5 µM (inactive)"}
{"compound": "Nc1ccccc1S(=O)(=O)c1ccccc1", "GI50": "> 100 µM (inactive)"}
{"compound": "CN(C)CCCOc1nc2c(c(=O)n(C)c(=O)n2C)n1C.SC1=NC=NC2=NC=NC12", "GI50": "0.656 µM (active)"}
{"compound": "CC(=O)Nc1ccc(/C=N\\N2C(=O)c3ccccc3C2=O)cc1", "GI50": "> 100 µM (inactive)"}
{"compound": "Cc1cc2c(c3oc(C(O)(CO)C4CO4)cc(=O)c13)C(=O)c1c(O)cccc1C2=O (stereo not given)", "GI50": "0.0029 µM (active)"}
{"compound": "O=C1NC(=O)C(CCO)(c2ccccc2)C(=O)N1", "GI50": "> 100 µM (inactive)"}
{"compound": "O=c1ccn(C2OC(CO)C(O)C2F)c(=O)n1Cc1ccccc1 (stereo not given)", "GI50": "> 100 µM (inactive)"}
{"compound": "CCN(CC)C(=O)N[C@@H](Cc1ccccc1)C(=O)NC", "GI50": "> 100 µM (inactive)"}
{"compound": "CN(C)c1ccc(/C=C(\\NC(=O)c2ccccc2)C(=O)Nc2cccc(C(=O)NCCCO)c2)cc1", "GI50": "> 100 µM (inactive)"}
{"compound": "CC(=O)OCC1OC(n2c(S)nc(-c3ccccc3)c(C#N)c2=O)C(OC(C)=O)C(OC(C)=O)C1OC(C)=O (stereo not given)", "GI50": "> 100 µM (inactive)"}
{"compound": "N#CC(=S)Nc1ccc(Cl)c(Cl)c1", "GI50": "20.5 µM (inactive)"}
{"compound": "CC(=O)OC1C(COC(=O)c2ccccc2)OC(Nc2ncc(-c3ccc(Br)cc3)s2)C(OC(=O)c2ccccc2)C1OC(=O)c1ccccc1 (stereo not given)", "GI50": "> 100 µM (inactive)"}
{"compound": "CC1=NN(C(=O)Cc2ccccc2)C(=O)/C1=C\\c1cccc(O)c1", "GI50": "> 100 µM (inactive)"}
{"compound": "Cc1c(C(=O)OCc2ccccc2)[n+]([O-])c2cc(Cl)c(Cl)cc2[n+]1[O-]", "GI50": "12.2 µM (inactive)"}
{"compound": "CC(Cc1ccc(O)cn1)(NC(=O)c1ccccc1)C(=O)O (stereo not given)", "GI50": "> 100 µM (inactive)"}
{"compound": "O=C(NNC(=O)c1ccccc1O)c1cccc(Br)c1", "GI50": "8.47 µM (inactive)"}
{"compound": "COc1cccc(N2C(=O)C3C4C=C5c6ccccc6N(c6ccccc6)C5(C3C2=O)[C@H]2C(=O)N(c3cccc(OC)c3)C(=O)[C@@H]42)c1 (stereo not given in full)", "GI50": "> 100 µM (inactive)"}
{"compound": "COc1cc2c(oc(=O)c3cc(C)cc(OC)c32)c2c(C3OC(C)C(O)C(C)(O)C3O)ccc(O)c12 (stereo not given)", "GI50": "0.785 µM (active)"}
{"compound": "CC(=O)Nc1ccc(/C=C(\\NC(=O)c2ccccc2)c2nc3ccc4c(c3[nH]2)C(=O)c2ccccc2C4=O)cc1", "GI50": "12.4 µM (inactive)"}
{"compound": "C=C1C(=O)C23[C@H](O)C1CC[C@H]2[C@]12COC3(O)[C@@H](O)[C@@H]1C(C)(C)CC[C@@H]2O", "GI50": "14.8 µM (inactive)"}
{"compound": "CS(=O)(=O)O[C@H]1CN2C[C@@H](O)[C@@H](O)[C@H]2[C@H]1CO.[B]", "GI50": "> 100 µM (inactive)"}
{"compound": "O=C(Nc1ccccc1F)c1cc2ccc(O)cc2o/c1=N\\c1ccccc1F", "GI50": "2.1 µM (inactive)"}
{"compound": "CC(=O)O[C@H]1C[C@@H](OC(C)=O)[C@@](C)(O)[C@@H]2[C@@H](OC(C)=O)[C@@]3(O)[C@H](/C=C(/CCl)[C@H]4O[C@H]4[C@@H](OC(C)=O)[C@@]12C)OC(=O)[C@@H]3C", "GI50": "> 25 µM (inactive)"}
{"compound": "Nc1nc(NNc2cccc(F)c2)cc(=O)[nH]1", "GI50": "24.9 µM (inactive)"}
{"compound": "CCOC(=O)C1Cc2c(ccc(OC)c2OC)C(=O)C1N (stereo not given)", "GI50": "93.1 µM (inactive)"}
{"compound": "CCCCN(C(=O)c1ccccc1)C1CCC(=O)c2[nH]c3ccccc3c21 (stereo not given)", "GI50": "64.7 µM (inactive)"}
{"compound": "COc1cc2c(=O)cnoc2cc1O", "GI50": "> 100 µM (inactive)"}
{"compound": "Cc1ccc(S(=O)(=O)N(C=O)N=C2CCN(Cc3ccccc3)CC2)cc1", "GI50": "> 100 µM (inactive)"}
{"compound": "COc1ccc(-c2ccccc2)c2[nH]c3c(c12)CCNC3=O", "GI50": "> 100 µM (inactive)"}

====

System: SR
Test: NCI tumour cell line growth inhibition, 48 h
Activity calls are given as the source filed them. Cut-off read from the data, not from the text of the source: active = GI50 up to about 1.1 µM and inactive = higher.
Possible outcomes: Y for active, N for inactive

{"molecule": "O=S1(=O)CCCS(=O)(=O)C(c2ccccc2)=C1c1ccccc1", "class": "N"}
{"molecule": "CC(C)(C)c1cc(C(=O)C2Cc3ccccc3C(=O)O2)cc(C(C)(C)C)c1O (stereo not given)", "class": "N"}
{"molecule": "CC(C)C1=CC23CCC4C(C)(C(=O)O)CCCC4(C)C2CC1C1C(=O)N(c2ccccc2N2C(=O)C4C5CC6C7(C)CCCC(C)(C(=O)O)C7CCC6(C=C5C(C)C)C4C2=O)C(=O)C13 (stereo not given)", "class": "N"}
{"molecule": "O=C(NCCCl)NCc1ccccc1", "class": "N"}
{"molecule": "Cc1cc2c(c3oc(C(O)(CO)C4CO4)cc(=O)c13)C(=O)c1c(O)cccc1C2=O (stereo not given)", "class": "Y"}

Cited source: ChEMBL document CHEMBL1201862
